Molecular target: hNPY1R (Homo sapiens (Human), UniProt P25929)
Sequence (P25929 whole entry): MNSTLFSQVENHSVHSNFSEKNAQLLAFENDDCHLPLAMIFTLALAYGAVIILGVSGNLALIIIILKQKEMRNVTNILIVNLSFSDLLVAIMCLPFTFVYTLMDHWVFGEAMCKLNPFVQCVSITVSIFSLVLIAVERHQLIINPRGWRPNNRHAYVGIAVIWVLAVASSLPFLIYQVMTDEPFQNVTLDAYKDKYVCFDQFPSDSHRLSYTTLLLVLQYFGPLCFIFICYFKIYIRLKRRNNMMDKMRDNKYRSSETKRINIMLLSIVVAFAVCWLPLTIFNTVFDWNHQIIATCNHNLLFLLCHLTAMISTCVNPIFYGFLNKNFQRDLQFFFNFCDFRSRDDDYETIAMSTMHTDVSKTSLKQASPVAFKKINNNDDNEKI
Assay: NPY1R binding assay (SK-N-MC membrane, [125I]-Peptide YY competition);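 also: bound radioligand separated by filtration over GF/C filter plates and counted, Ki obtained by non-linear regression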
Conditions: crude SK-N-MC membranes endogenously expressing NPY1R; [125I]-Peptide YY (human) 0.05 nM; 120 min at room temperature; read-out: hNPY1R binding Ki
pKi: −log10 of the molar value.
observation type: pKi

Provide pKi values for the following items, in order.
1. CCC(=O)NCCNC(=O)/N=C(/N)NCCC[C@@H](NC(=O)[C@@H](c1ccc(OCCCN)cc1)N1Cc2ccccc2C1)C(=O)NCc1ccc(O)cc1 [64B]
2. N=C(N)NCCC[C@@H](NC(=O)C(c1ccccc1)N1CCC(c2ccccc2)CC1)C(=O)NCc1ccc(O)cc1 (some centres unmarked)
3. CCNC(=O)/N=C(/N)NCCC[C@@H](NC(=O)[C@H](c1ccccc1)N1Cc2ccc(NCCCN)cc2C1)C(=O)NCc1c(F)cc(O)cc1F [65A]
4. CCNC(=O)/N=C(/N)NCCC[C@@H](NC(=O)[C@H](c1cccc(NCCCN)c1)N1Cc2ccccc2C1)C(=O)NCc1c(F)cc(O)cc1F [66A]
5. N=C(N)NCCC[C@@H](NC(=O)C(c1ccccc1)N1CCC(C2CC2)CC1)C(=O)NCc1ccc(O)cc1 (some centres unmarked)
6. CCNC(=O)/N=C(/N)NCCC[C@@H](NC(=O)[C@@H](c1cccc(NCCCN)c1)N1Cc2ccccc2C1)C(=O)NCc1c(F)cc(O)cc1F [66B]
7. CCC(=O)NCCNC(=O)/N=C(/N)NCCC[C@@H](NC(=O)[C@H](c1ccc(OCCCNC(=O)C[C@H](O)C[C@H](O)CCNC(=O)CCC(=O)NCCNC(=O)CN2CCN(CC(=O)O)CCN(CC(=O)O)CCN(CC(=O)O)CC2)cc1)N1Cc2ccccc2C1)C(=O)NCc1c(F)cc(O)cc1F

["7.00 to 8.00", "6.00 to 7.00", "> 8.00", "> 8.00", "6.00 to 7.00", "> 8.00", "> 8.00"]

Provide pKi values for the following items, in order.
1. CCC(=O)NCCNC(=O)/N=C(/N)NCCC[C@@H](NC(=O)[C@H](c1ccc(OCCNC(=O)CCCCCNC(=O)CN2CCN(CC(=O)O)CCN(CC(=O)O)CCN(CC(=O)O)CC2)cc1)N1Cc2ccccc2C1)C(=O)NCc1ccc(O)cc1
2. N=C(N)NCCC[C@@H](NC(=O)C(c1ccccc1)N1Cc2ccccc2C1)C(=O)NCc1ccc(O)cc1 (some centres unmarked)
3. CCC(=O)NCCNC(=O)/N=C(/N)NCCC[C@@H](NC(=O)[C@H](c1ccc(OCCCNC(=O)[C@@H](CC(N)=O)NC(=O)[C@@H](CO)NC(=O)CCNC(=O)CN2CCN(CC(=O)O)CCN(CC(=O)O)CCN(CC(=O)O)CC2)cc1)N1Cc2ccccc2C1)C(=O)NCc1c(F)cc(O)cc1F
4. CCC(=O)NCCNC(=O)/N=C(/N)NCCC[C@@H](NC(=O)[C@H](c1ccc(OCCCN2CCN(C(=O)CCCCCNC(=O)CN3CCN(CC(=O)O)CCN(CC(=O)O)CCN(CC(=O)O)CC3)CC2)cc1)N1Cc2ccccc2C1)C(=O)NCc1c(F)cc(O)cc1F

1. > 8.00
2. 7.00 to 8.00
3. > 8.00
4. > 8.00
